Test system: Escherichia coli TOP10
Experiment: shrunken log2 fold change of peptide-encoding DNA abundance (4.5 h post-induction vs induction); higher = less antimicrobial activity (less host growth inhibition)
Settings: time post-induction: 4.5 h; library: site-saturation at positions 5, 18, 19, 20
Some sequences, each annotated with its measured shrunken log2 fold change.
Respond using a number only.

| Monomer Sequence | shrunken log2 fold change |
| --- | --- |
| RRIRVRPPRLPRPRPRPGFAPRP | 0.299 |
| RRIRFRPPRLPRPRPRPNMIPRP | -0.495 |
| RRIRQRPPRLPRPRPRPDWFPRP | -0.104 |

Fill in: shrunken log2 fold change of RRIRQRPPRLPRPRPRPERGPRP is ___
0.105

Could you tell me which shrunken log2 fold change is on file for RRIRWRPPRLPRPRPRPMCEPRP ?
-0.0562

Please give the measured shrunken log2 fold change for this sequence: RRIRRRPPRLPRPRPRPKEYPRP
-0.0535

Reported shrunken log2 fold change for RRIRERPPRLPRPRPRPAPFPRP : what is it?
-0.244

Which measured shrunken log2 fold change value corresponds to RRIRARPPRLPRPRPRPVVTPRP ?
0.254

Request the reported shrunken log2 fold change associated with RRIRLRPPRLPRPRPRPMNSPRP
-0.406

# get_value(readout='shrunken log2 fold change', item= RRIRSRPPRLPRPRPRPTMRPRP )
0.881

Which value of shrunken log2 fold change has been reported for RRIRDRPPRLPRPRPRPIMIPRP in the records?
-0.408

Entry RRIRARPPRLPRPRPRPPCWPRP has what shrunken log2 fold change?
0.967

Item under review: RRIRTRPPRLPRPRPRPGTIPRP . Reported shrunken log2 fold change?
-0.0982

----------
Tested on: Escherichia coli TOP10
Assay: shrunken log2 fold change of peptide-encoding DNA abundance (4.5 h post-induction vs induction); higher = less antimicrobial activity (less host growth inhibition)
Conditions: time post-induction: 4.5 h; library: site-saturation at positions 5, 18, 19, 20
Values of shrunken log2 fold change greater than or equal to 0.1 map to rule met; values below map to rule not met.

| Monomer Sequence | System | Discrete Label |
| --- | --- | --- |
| RRIRPRPPRLPRPRPRPPMQPRP | Escherichia coli TOP10 | rule met |

Entry RRIRWRPPRLPRPRPRPMKKPRP : is its shrunken log2 fold change no less than 0.1?
rule not met

Decide: shrunken log2 fold change of RRIRIRPPRLPRPRPRPLLEPRP >= 0.1?
rule not met

Does the sequence RRIRYRPPRLPRPRPRPHLDPRP have recorded shrunken log2 fold change that is 0.1 or more?
rule not met

Tell me whether shrunken log2 fold change is at least 0.1 here: RRIRARPPRLPRPRPRPSMMPRP
rule met

----------
Tested on: Escherichia coli TOP10;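 further: peptides expressed intracellularly from a pBAD plasmid library in pooled LB shake-flask culture, induced with 0.3% L-arabinose, DNA abundance read by NGS, three biological replicates, DESeq2 with apeglm shrinkage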
Assay: shrunken log2 fold change of peptide-encoding DNA abundance (4.5 h post-induction vs induction); higher = less antimicrobial activity (less host growth inhibition)
Details: time post-induction: 4.5 h; library: site-saturation at positions 5, 18, 19, 20
Metric Name: shrunken log2 fold change
API doc: respond with a numeric literal and nothing else, no unit.

Please review the following examples before continuing.
| Monomer Sequence | Metric Name | Value Measured |
| --- | --- | --- |
| RRIRQRPPRLPRPRPRPLAHPRP | shrunken log2 fold change | -0.0319 |
| RRIRCRPPRLPRPRPRPHQQPRP | shrunken log2 fold change | 0.14 |
| RRIRHRPPRLPRPRPRPAPWPRP | shrunken log2 fold change | 0.0941 |
| RRIRSRPPRLPRPRPRPSWYPRP | shrunken log2 fold change | -0.745 |
| RRIRLRPPRLPRPRPRPIPNPRP | shrunken log2 fold change | -0.135 |
| RRIRFRPPRLPRPRPRPYVAPRP | shrunken log2 fold change | -0.62 |
| RRIRARPPRLPRPRPRPHYPPRP | shrunken log2 fold change | -1.36 |
| RRIRTRPPRLPRPRPRPFIFPRP | shrunken log2 fold change | -0.447 |

Endpoint output: shrunken log2 fold change of RRIRFRPPRLPRPRPRPGTYPRP . Value?
-0.851

What value of shrunken log2 fold change has been reported for the following sequence? RRIRLRPPRLPRPRPRPEYCPRP
0.0552
